The entries below come with measured MIC values attached.
# Test system: Enterococcus faecalis GC 4555
# protocolDescription: MIC by broth dilution
# Assay type: cell-based
# conditionContext: GC4555, Table 2, 18 hours at 35° C., read-out: MIC
# Method: The minimum inhibitory concentration (MIC), the lowest concentration of the antibiotic which inhibits growth of the test organism, is determined by the broth dilution method using Muller-Hinton II […] (Baltimore Biological Laboratories) following the recommendations of the National Committee for Clinical Laboratory Standards [Methods for dilution antimicrobial susceptibility tests for bacteria that grow aerobically. Approved standard M7-A2. […]
# output: numeric value plus its unit

molecule: CCCCCC(=O)O[C@H]1c2cc(C)cc(O)c2C(O)=C2C(=O)[C@H]3C=C[C@]21Cc1cc(O)c(C(=O)c2c(O)ccc(O)c2C(=O)OC)c(O)c13 [Example 9, Cyan-416 B hexanoate]
measuredOn: Enterococcus faecalis GC 4555
MIC: 4 µg/mL
--
molecule: COC(=O)c1c(O)ccc(O)c1C(=O)c1c(O)cc2c(c1O)[C@@H]1C=C[C@]3(C2)C(=C(O)c2c(O)cc(C)cc2[C@@H]3OC(=O)C(C)C)C1=O [Example 7, Cyan-416 B isobutyrate]
measuredOn: Enterococcus faecalis GC 4555
MIC: 4 µg/mL
--
molecule: CCCC(=O)O[C@H]1c2cc(C)cc(O)c2C(O)=C2C(=O)[C@H]3C=C[C@]21Cc1cc(O)c(C(=O)c2c(O)ccc(O)c2C(=O)OC)c(O)c13 [Example 6, Cyan-416 B butyrate]
measuredOn: Enterococcus faecalis GC 4555
MIC: 16 µg/mL

# input for lookup
-- ask GET /values?readout=MIC&item= CCCCC(=O)O[C@H]1c2cc(C)cc(O)c2C(O)=C2C(=O)[C@H]3C=C[C@]21Cc1cc(O)c(C(=O)c2c(O)ccc(O)c2C(=O)OC)c(O)c13 [Example 8, Cyan-416 B pentanoate]
-- reply 4 µg/mL

---

# Test system: Enterococcus faecalis GC 2242
# protocolDescription: MIC by broth dilution
# Assay type: cell-based
# conditionContext: GC2242, Table 2, 18 hours at 35° C., read-out: MIC
The entries below come with measured MIC values attached.

Solved cases (3 shown):
compound: CCCCCC(=O)O[C@H]1c2cc(C)cc(O)c2C(O)=C2C(=O)[C@H]3C=C[C@]21Cc1cc(O)c(C(=O)c2c(O)ccc(O)c2C(=O)OC)c(O)c13 [Example 9, Cyan-416 B hexanoate]
MIC: 4 µg/mL
--
compound: COC(=O)c1c(O)ccc(O)c1C(=O)c1c(O)cc2c(c1O)[C@@H]1C=C[C@]3(C2)C(=C(O)c2c(O)cc(C)cc2[C@@H]3OC(=O)C(C)C)C1=O [Example 7, Cyan-416 B isobutyrate]
MIC: 4 µg/mL
--
compound: CCCC(=O)O[C@H]1c2cc(C)cc(O)c2C(O)=C2C(=O)[C@H]3C=C[C@]21Cc1cc(O)c(C(=O)c2c(O)ccc(O)c2C(=O)OC)c(O)c13 [Example 6, Cyan-416 B butyrate]
MIC: 8 µg/mL

-- ask GET /values?readout=MIC&item= CCCCC(=O)O[C@H]1c2cc(C)cc(O)c2C(O)=C2C(=O)[C@H]3C=C[C@]21Cc1cc(O)c(C(=O)c2c(O)ccc(O)c2C(=O)OC)c(O)c13 [Example 8, Cyan-416 B pentanoate]
-- reply 4 µg/mL
